Molecular target: KRas WT (Homo sapiens, UniProt P01116)
Construct: Biotinylated KRas (corresponding to amino acids 1-169, produced at Accelegan Inc.); biotin (biotinylated); purchased Accelegan Inc
Sequence (P01116 1-169 isoform P01116-2): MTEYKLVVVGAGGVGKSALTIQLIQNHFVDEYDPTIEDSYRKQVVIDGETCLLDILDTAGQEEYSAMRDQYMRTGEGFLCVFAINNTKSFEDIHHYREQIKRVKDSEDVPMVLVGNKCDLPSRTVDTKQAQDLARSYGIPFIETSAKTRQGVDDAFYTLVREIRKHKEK
Assay: KRas binding assay, TR-FRET displacement of Cy5 labelled tracer
Conditions: 60-minute incubation at room temperature, 1% DMSO, pH 7.5
MEASURED_PARAMETER: IC50 (nM)

Cc1ccn(C(=O)C2CCN(c3nc(OC[C@@]45CCCN4C/C(=C\F)C5)nc4c(F)c(-c5ccc(F)c6sc(N)c(C#N)c56)c(Cl)cc34)CC2)n1	11

P. Cc1ccn(C(=O)[C@H]2CCN(c3nc(OC[C@@]45CCCN4C[C@H](F)C5)nc4c(F)c(-c5ccc(F)c6sc(N)c(C#N)c56)c(Cl)cc34)C[C@H]2C)n1
Q. C#Cc1c(F)ccc2cc(O)cc(-c3ncc4c(N5CCC(C(=O)n6ccc(C)n6)CC5)nc(OC[C@@]56CCCN5C[C@H](F)C6)nc4c3F)c12
R. O=C(Oc1ccccc1F)C1CCN(c2nc(OCC34CCCN3CCC4)nc3c(F)c(-c4cccc5cccc(F)c45)ncc23)CC1
(Q) Parameters: sort_field (IC50), sort_dir (desc). Field: ranking. Enter the labels in the order requested.
(A) R, Q, P

The measured values listed here are drawn from patent US20260356856A1.
